test system: DU-145 prostate; assay: NCI-60 one-dose screen, 48 h (100 = growth as untreated, 0 = no growth, -100 = all killed); details: 10 µM unless noted
About 83,000 compounds went through this panel and 20% of them were active in at least one assay; those are over-represented in the sample as a whole.
// bucketize growth: low end (below 40%), middle (40% to below 90%), high end (90% or more)

Incoming: Hey, which category is `O=C1C=CC(=O)c2c1nc1n2CCCC1` in, do you know?
Outgoing: middle

Incoming: Hey, which category is `O=C(CN1CCN(c2cc3c(cc2F)c(=O)c(C(=O)O)cn3C2CC2)CC1)Nc1nc(-c2ccccc2)cs1` in, do you know?
Outgoing: middle

Incoming: Hey, which category is `CC(=O)Nc1ccc2c(c1)c(NC(C)=O)nn2C(=O)Nc1ccc(Cc2ccccc2)cc1` in, do you know?
Outgoing: middle

Incoming: Hey, which category is `CN1CCOCCOCCOc2ccccc2NC(=O)c2nc(cnc2N)-c2ccc(cc2)S1(=O)=O` in, do you know?
Outgoing: low end

Incoming: Hey, which category is `CNCCCn1c2c(c3ccc([N+](=O)[O-])cc3c1=O)C(=O)c1cc(OC)cnc1-2` in, do you know?
Outgoing: low end

Incoming: Hey, which category is `Cc1csc2ccc(Cl)cc12` in, do you know?
Outgoing: high end

Incoming: Hey, which category is `CCc1ccc(C(c2ccc(CC)cc2)C(Cl)(Cl)CCl)cc1` in, do you know?
Outgoing: high end

Incoming: Hey, which category is `COc1cc(NC(N)=NCC(C)(C)COc2ccc(C(F)(F)F)cc2)cnc1C#N` in, do you know?
Outgoing: middle

Incoming: Hey, which category is O=C1C=CC(Nc2ccccc2[N+](=O)[O-])C1Nc1ccccc1[N+](=O)[O-] (stereo not given) in, do you know?
Outgoing: low end

Incoming: Hey, which category is `Cc1cc2cc3cc(C)c(N(C)C)cc3nc2cc1N(C)C` in, do you know?
Outgoing: low end

Incoming: Hey, which category is `CCCCNP1(NCCCC)=NP(NCCCC)(NCCCC)=NP(NCCCC)(NCCCC)=NP(NCCCC)(NCCCC)=N1` in, do you know?
Outgoing: low end

Incoming: Hey, which category is `O=C(O)c1ccccc1Nc1cccc(S(F)(F)(F)(F)F)c1` in, do you know?
Outgoing: high end

Incoming: Hey, which category is `O=C(/C=C/c1ccc(B(O)O)cc1)/C=C/c1ccc(B(O)O)cc1` in, do you know?
Outgoing: middle

Incoming: Hey, which category is O=C1C2CC=CCC2C(=O)N1CNc1ccc(Cl)cc1 (stereo not given) in, do you know?
Outgoing: high end

Incoming: Hey, which category is `NS(=O)(=O)c1ccc(-n2ncc3c(=O)[nH]c(CN4CCN(c5cc6c(cc5F)c(=O)c(C(=O)O)cn6C5CC5)CC4)nc32)cc1` in, do you know?
Outgoing: high end

Incoming: Hey, which category is CCC(c1ccccc1)C(CC)c1ccc(O)c(O)c1 (stereo not given) in, do you know?
Outgoing: high end

Incoming: Hey, which category is `CN1CCN(Cc2ccc(NC(=O)c3[nH]ncc3Nc3ncnc4c3CCC4)cc2)CC1` in, do you know?
Outgoing: low end

Incoming: Hey, which category is C=C1CCC2C3(C)COC(C)(C)OC3CCC2(C)C1C/C=C1/C(=O)OCC1OC(C)=O (stereo not given) in, do you know?
Outgoing: middle
